Target: Recombinant human mPGES-1 (Homo sapiens, UniProt O14684)
Sequence (O14684 whole entry): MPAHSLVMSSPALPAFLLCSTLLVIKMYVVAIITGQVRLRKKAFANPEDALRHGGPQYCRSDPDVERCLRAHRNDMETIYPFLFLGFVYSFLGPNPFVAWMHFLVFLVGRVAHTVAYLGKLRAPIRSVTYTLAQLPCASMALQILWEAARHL
Experiment: In-vitro mPGES-1 enzyme inhibition assay (PGE2 formation from PGH2, HTRF detection)
Format: biochemical
Details: 1 μM test compound; recombinant human mPGES-1 microsomal fraction; read-out: Percentage inhibition at 1 μM
Text: In-Vitro Protocol for Screening of mPGES-1 Inhibitors: mPGES-1 (microsomal prostaglandin E synthase-1) is a microsomal enzyme that converts endoperoxide substrate PGH2 (prostaglandin H2) to product PGE2 (prostaglandin E2) by isomerization in the presence of reduced glutathione (GSH). mPGES-1 inhibitors were screened by assessing their ability to inhibit formation of PGE2 from PGH2 in presence of mPGES-1 using anti-PGE2 antibody based detection method. […]
quantity_name: inhibition at 1 µM

Input: Quick one: inhibition at 1 µM for CCCCCCNC(=O)c1cc2nc(Nc3c(Cl)cncc3Cl)[nH]c2c2c1OC(C)(C)C2 [Example-3] ?
Output: 99.1%

Input: Quick one: inhibition at 1 µM for CC1(C)Cc2c(c(C(=O)NNc3ccc(Br)cc3)cc3nc(Nc4c(Cl)cccc4Cl)[nH]c23)O1 [Example-74] ?
Output: 93.4%

Input: Quick one: inhibition at 1 µM for Cn1c(Nc2c(F)cccc2Cl)nc2cc(C(=O)Nc3ccc(C(F)(F)F)nc3)c3c(c21)CC(C)(C)O3 [Example-153] ?
Output: 100%

Input: Quick one: inhibition at 1 µM for CC1(C)Cc2c(c(C(=O)NCC3CC3)cc3nc(Nc4c(Cl)cncc4Cl)[nH]c23)O1 [Example-21] ?
Output: 96.8%

Input: Quick one: inhibition at 1 µM for Cn1c(Nc2c(Cl)cncc2Cl)nc2cc(C(=O)NCC3CC3)c3c(c21)CC(C)(C)O3 [Example-220] ?
Output: 81.5%

Input: Quick one: inhibition at 1 µM for CC1(C)Cc2c(c(C(=O)NCCF)cc3nc(Nc4c(Cl)cccc4Cl)[nH]c23)O1 [Example-63] ?
Output: 88%

Input: Quick one: inhibition at 1 µM for CC1(C)Cc2c(c(C(=O)NC3(c4cccc(C(F)(F)F)c4)CC3)cc3nc(Nc4c(F)cccc4Cl)[nH]c23)O1 [Example-127] ?
Output: 94.7%
